Source of measurements: patent US12421249B2

- targetEntity: APOL1 G1 (Homo sapiens, UniProt O14791, I384M/S342G)
- Sequence (O14791 28-398 S342G/I384M): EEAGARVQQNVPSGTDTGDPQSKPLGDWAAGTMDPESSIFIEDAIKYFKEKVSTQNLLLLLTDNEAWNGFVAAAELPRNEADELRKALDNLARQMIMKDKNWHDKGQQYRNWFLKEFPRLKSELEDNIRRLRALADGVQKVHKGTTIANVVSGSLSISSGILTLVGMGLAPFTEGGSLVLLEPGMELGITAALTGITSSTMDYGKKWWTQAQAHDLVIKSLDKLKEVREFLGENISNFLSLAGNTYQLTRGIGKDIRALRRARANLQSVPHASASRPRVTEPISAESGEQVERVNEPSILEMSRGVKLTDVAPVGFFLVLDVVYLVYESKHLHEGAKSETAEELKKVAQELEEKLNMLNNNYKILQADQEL
- assayInfo: Trypanosoma brucei brucei Lysis Assay Using APOL1 Recombinant Protein (AlamarBlue viability readout)
- Assay type: cell-based
- runParameters: Trypanosome Assay; IP50 = IC50 for cell proliferation; read-out: Trypanosome Assay IP50
pIC50: −log10 of the molar value.
property: pIC50

# Cc1nn(CCO)cc1[C@@H]1C[C@]2(C[C@H](C)N1)OCCc1cc(Cl)sc12 (racemic) [Compound 158] with APOL1 G1 (Homo sapiens, UniProt O14791, I384M/S342G): pIC50 is < 6.30

Entry CC1CC2(CC(C3CCOCC3)N1)OCCc1cc(Cl)sc12 (mixture of isomers) [Compound 216] ; assay system APOL1 G1 (Homo sapiens, UniProt O14791, I384M/S342G); pIC50 recorded at 6.30 to 7.30

Observed pIC50 on APOL1 G1 (Homo sapiens, UniProt O14791, I384M/S342G), entry C[C@@H]1CC2(C[C@H](C)N1)OCCc1cc(C3CC(F)(F)C3)sc12 (single isomer, unassigned) [Compound 198] , equals 6.30 to 7.30

Item: CNC(=O)c1cccc(C2CC3(CC(C)N2)OCCc2cc(Cl)sc23)c1 (stereo not drawn) [Compound 27] | System: APOL1 G1 (Homo sapiens, UniProt O14791, I384M/S342G) | pIC50: > 7.30

The reported APOL1 G1 (Homo sapiens, UniProt O14791, I384M/S342G) pIC50 of C[C@H]1C[C@@]2(C[C@@H](c3cnc(C(N)=O)cn3)N1)OCCc1cc(Cl)sc12 (racemic) [Compound 63] is > 7.30

Field pIC50 (system: APOL1 G1 (Homo sapiens, UniProt O14791, I384M/S342G)) for entry CC1CC2(CC(C3CC3(F)F)N1)OCCc1cc(Cl)sc12 (single isomer, unassigned) [Compound 212] = > 7.30

The value of pIC50 recorded for Cc1cncc([C@@H]2C[C@]3(C[C@H](C)N2)OCCc2cc(Cl)sc23)c1 (racemic) [Compound 64] when tested on APOL1 G1 (Homo sapiens, UniProt O14791, I384M/S342G) reads > 7.30

Hey, APOL1 G1 (Homo sapiens, UniProt O14791, I384M/S342G) data for CCc1nc([C@@H]2C[C@]3(C[C@H](C)N2)OCCc2cc(Cl)sc23)c[nH]1 (racemic) [Compound 128] : pIC50 came out at 6.30 to 7.30

Param item: C[C@H]1C[C@@]2(C[C@@H](c3cn(C)nn3)N1)OCCc1cc(Cl)sc12 [Compound 1] ; param system: APOL1 G1 (Homo sapiens, UniProt O14791, I384M/S342G); output pIC50: > 7.30

Simply: Cc1cc([C@@H]2C[C@]3(C[C@H](C)N2)OCCc2cc(Cl)sc23)nn1C (racemic) [Compound 98] , APOL1 G1 (Homo sapiens, UniProt O14791, I384M/S342G), pIC50 = > 7.30

Bench note, APOL1 G1 (Homo sapiens, UniProt O14791, I384M/S342G): entry C[C@H]1C[C@@]2(C[C@@H](c3cnn(CC(=O)N(C)C)c3)N1)OCCc1cc(Cl)sc12 [Compound 18] , its pIC50 = 6.30 to 7.30

Measured on APOL1 G1 (Homo sapiens, UniProt O14791, I384M/S342G), CCC1CC2(CC(c3cn(C)nn3)N1)OCCc1cc(Cl)sc12 (stereo not drawn) [Compound 186] has a documented pIC50 of 6.30 to 7.30

Considering COc1ccc([C@@H]2C[C@]3(C[C@H](C)N2)OCCc2cc(Cl)sc23)c(F)c1 (racemic) [Compound 44] , its pIC50 with APOL1 G1 (Homo sapiens, UniProt O14791, I384M/S342G) was recorded as > 7.30

Field pIC50 (APOL1 G1 (Homo sapiens, UniProt O14791, I384M/S342G)), entry C[C@H]1C[C@@]2(C[C@@H](c3cccnn3)N1)OCCc1cc(Cl)sc12 (racemic) [Compound 92] : > 7.30

Bench note, APOL1 G1 (Homo sapiens, UniProt O14791, I384M/S342G): entry C[C@H]1C[C@@]2(C[C@@H](c3cccc(C#N)n3)N1)OCCc1cc(Cl)sc12 (racemic) [Compound 53] , its pIC50 = 6.30 to 7.30

With APOL1 G1 (Homo sapiens, UniProt O14791, I384M/S342G) as the test system, C[C@H]1C[C@@]2(C[C@@H](c3cnc4c(cnn4C)c3)N1)OCCc1cc(Cl)sc12 (racemic) [Compound 26] showed pIC50 of > 7.30

Entry CC1CC2(CC(C3CC3(F)F)N1)OCCc1cc(Cl)sc12 (single isomer, unassigned) [Compound 213] under APOL1 G1 (Homo sapiens, UniProt O14791, I384M/S342G) had pIC50 of 6.30 to 7.30

The compound C[C@H]1CC2(CC(c3cnn(C)c3)N1)OCC(O)c1cc(Cl)sc12 (single isomer, unassigned) [Compound 176] , when measured on APOL1 G1 (Homo sapiens, UniProt O14791, I384M/S342G), yielded pIC50 of > 7.30

Here C[C@H]1C[C@@]2(C[C@@H](c3cn(C)nn3)N1)OCC(O)(C(F)F)c1cc(Cl)sc12 (single isomer, unassigned) [Compound 185] was tested on APOL1 G1 (Homo sapiens, UniProt O14791, I384M/S342G), and its pIC50 came to 6.30 to 7.30

Record C[C@H]1C[C@@]2(C[C@@H](c3cc(C4CC4)n[nH]3)N1)OCCc1cc(Cl)sc12 (racemic) [Compound 120] ; system APOL1 G1 (Homo sapiens, UniProt O14791, I384M/S342G); pIC50 = 6.30 to 7.30

Record Cc1cccc([C@@H]2C[C@]3(C[C@H](C)N2)OCCc2cc(Cl)sc23)n1 (racemic) [Compound 126] has APOL1 G1 (Homo sapiens, UniProt O14791, I384M/S342G) pIC50 equal to 6.30 to 7.30

// pIC50 (APOL1 G1 (Homo sapiens, UniProt O14791, I384M/S342G)) for C[C@H]1C[C@@]2(C[C@@H](c3cnn(-c4ccccc4)c3)N1)OCCc1cc(Cl)sc12 (racemic) [Compound 65] = > 7.30

Item CC1CC2(CC(c3cn(C)cn3)N1)OCCc1cc(Cl)sc12 (racemic) [Compound 22] ; assay system APOL1 G1 (Homo sapiens, UniProt O14791, I384M/S342G); pIC50 reported as > 7.30

CCc1cc2c(s1)CCO[C@@]21C[C@@H](c2cnn(CCS(C)(=O)=O)c2)N[C@@H](C)C1 (stereo in doubt) [Compound 5] tested on APOL1 G1 (Homo sapiens, UniProt O14791, I384M/S342G) gave pIC50: 6.30 to 7.30

C[C@H]1C[C@@]2(C[C@@H](c3ccnc(N(C)C)n3)N1)OCCc1cc(Cl)sc12 (racemic) [Compound 127] on APOL1 G1 (Homo sapiens, UniProt O14791, I384M/S342G) gives pIC50 = 6.30 to 7.30

Cc1coc([C@@H]2C[C@]3(C[C@H](C)N2)OCCc2cc(Cl)sc23)n1 (racemic) [Compound 155] tested on APOL1 G1 (Homo sapiens, UniProt O14791, I384M/S342G) gave pIC50: < 6.30

So the reported pIC50 for C[C@H]1C[C@@]2(C[C@@H](c3cnn(C)c3)N1)OCCc1cc(Cl)sc12 [Compound 19] , on APOL1 G1 (Homo sapiens, UniProt O14791, I384M/S342G), turned out to be > 7.30

For the compound C[C@H]1C[C@@]2(C[C@@H](c3cc(-c4ccccn4)n[nH]3)N1)OCCc1cc(Cl)sc12 (racemic) [Compound 88] , the measured pIC50 on APOL1 G1 (Homo sapiens, UniProt O14791, I384M/S342G) was > 7.30

# lookup: CC1CC2(CC(C3CC3)N1)OCCc1cc(Cl)sc12 (mixture of isomers) [Compound 211] on APOL1 G1 (Homo sapiens, UniProt O14791, I384M/S342G), pIC50 = 6.30 to 7.30

Summary line: C[C@H]1C[C@@]2(C[C@@H](c3n[nH]c4ccccc34)N1)OCCc1cc(Cl)sc12 (racemic) [Compound 169] , APOL1 G1 (Homo sapiens, UniProt O14791, I384M/S342G), reported pIC50 = < 6.30
